Hey, just so you know, these numbers are from PubChem BioAssay (NCI).

# System: HL-60(TB) leukemia
# PROTOCOL_NOTES: NCI tumour cell line growth inhibition, 48 h
TGI by entry:
METRIC_NAME: TGI

INSERT INTO results (molecule, result) VALUES
  ('CCOC(=O)c1cn(CC)c2ccc3ccsc3c2c1=O', '> 100 µM'),
  ('Fc1ccc(C2SCc3nc4ccccc4n32)cc1F (configuration not stated)', '26.2 µM'),
  ('CSC1=C(C#N)C(=O)N(c2ccc(C)cc2)C(=O)C1C#N (configuration not stated)', '> 100 µM'),
  ('Cc1ccc(SCC(CF)OC(C)n2cnc3c(Cl)nc(N)nc32)cc1 (configuration not stated)', '86.3 µM'),
  ('CC(=O)OCC1OC([Se-])C(OC(C)=O)C(OC(C)=O)C1OC(C)=O.N#CCC[PH+](CCC#N)CCC#N.[Au+] (configuration not stated)', '4.31 µM'),
  ('O=C(O)c1cccc(OCCOc2cccc(C(=O)O)c2[N+](=O)[O-])c1[N+](=O)[O-]', '> 100 µM'),
  ('CN1C(C)(C)CC(=O)C(Br)C1(C)C (configuration not stated)', '> 100 µM'),
  ('FC(F)(F)c1cc(-c2ncn(/C=C\c3nnco3)n2)cc(C(F)(F)F)c1', '13.4 µM'),
  ('CN(CSc1ccc(Cl)cc1)c1ccc(CSc2ccc(Cl)cc2)cc1', '32 µM'),
  ('O=c1oc2ccc3ccccc3c2cc1-c1cn2c(n1)sc1ccccc12', '> 100 µM'),
  ('O=C([O-])CCc1ccccc1.O=C([O-])CCc1ccccc1.O=C([O-])CCc1ccccc1.O=C([O-])CCc1ccccc1.[Mo+2].[Mo+2]', '> 100 µM'),
  ('CC1=NC=C(O)c2ccccc2O1', '> 100 µM'),
  ('NC1=NC2=C(CCCC2)C(c2cccs2)S1 (configuration not stated)', '> 100 µM'),
  ('NS(=O)(=O)c1ccc(N=C2C(=O)Nc3ccccc32)cc1', '> 100 µM'),
  ('CCCNCC(O)CNc1ccc(NCC(O)CNCCC)c2c1C(=O)c1ccccc1C2=O (configuration not stated)', '18.9 µM'),
  ('Oc1ccc(Cc2ccc(O)c(C3CC(c4ccc(Cl)cc4)=NN3)c2)cc1C1CC(c2ccc(Cl)cc2)=NN1 (configuration not stated)', '> 100 µM'),
  ('COCC12CCC(OC)C34C5CC6(O)C(OC)C=C(C5C6OC(=O)c5ccccc5)C(C(OC)C13)C4N(C)C2 (configuration not stated)', '> 100 µM'),
  ('C=C1CC(C)(COc2cc(=O)oc3ccccc23)OC1=O (configuration not stated)', '4.83 µM'),
  ('COc1ccc(/C=C/C(=O)c2ccc(Nc3nc(Nc4ccc(F)cc4)nc(Nc4ccc(Cl)cc4)n3)cc2)cc1', '> 100 µM'),
  ('Cc1c(-c2nc(N)c(C#N)c(N)c2C#N)c(=O)oc2ccccc12', '> 100 µM'),
  ('CC(CNC(=O)c1ccccc1)(CNC(=O)c1ccccc1)[N+](=O)[O-]', '> 100 µM'),
  ('C/C(=N/NC(=S)N1CC2CCC(CC2)C1)c1cnccn1', '3.18 µM'),
  ('CC(C)OC(=O)NNc1cccc(Cl)c1', '> 100 µM'),
  ('NC(=N\N=C/c1ccc(Cl)cc1Cl)/C(N)=N\N=C/c1ccc(Cl)cc1Cl', '> 100 µM'),
  ('O=C1c2cccnc2C(=O)c2c1c(C(=O)OCCc1ccccn1)c1ccccn21', '5.93 µM'),
  ('COc1ccc(-c2coc3cc(O)cc(O)c3c2=O)cc1', '> 10 µM'),
  ('CCC1c2cc3n(c(=O)c2COC1O)Cc1c-3nc2ccccc2c1Cl (configuration not stated)', '> 100 µM'),
  ('C=CC(OC(=O)C(C)C)c1ccc(OC(=O)C(C)C)cc1 (configuration not stated)', '21 µM'),
  ('CC(C)CC(NC=O)C(=O)NC(Cc1ccccc1)NC(=O)CNC(=O)C(C)NC(=O)C(N)Cc1ccc(O)cc1 (configuration not stated)', '> 100 µM'),
  ('C=C1C(=O)OC2CC1C(OC(C)=O)C/C(C)=C/CC/C(C)=C\CCC2(C)O (configuration not stated)', '2.64 µM'),
  ('C/C(=N\O)c1cccc(Nc2cc(-c3ccccc3)nc3c(O)cccc23)c1', '> 66.3 µM'),
  ('COc1cc(C2C(C(=O)O)=C(COC(C)=O)Oc3cc4c(cc32)OCO4)cc(OC)c1OC(C)=O (configuration not stated)', '> 100 µM'),
  ('CC(C)(Oc1ccc2c(=O)cc(-c3ccccc3)oc2c1)C(=O)N1CCN(c2ccccc2)CC1', '4.38 µM'),
  ('Cc1ccc(C(=O)N2CCCCC2)cc1N=NN(C)C', '> 100 µM'),
  ('c1ccc2nn(C3CCCO3)nc2c1 (configuration not stated)', '> 100 µM'),
  ('CO[C@H]1O[C@@H]2OC3(C)CCC4[C@H](C)CCC([C@H]1C)[C@]42OO3 (some centres not stated)', '46.7 µM'),
  ('O=C1NC(=O)C(c2ccccc2)=C1Nc1ccccc1', '> 25 µM'),
  ('Brc1ccc(Nc2nc3ccccc3nc2Nc2ccc(Br)cc2)cc1', '5.96 µM'),
  ('O=C(c1ccccc1)C(Nc1ccc2ccccc2c1)c1ccccc1 (configuration not stated)', '36.4 µM'),
  ('O=C(Cc1ccccc1)N/N=C(/c1nc2ccc([N+](=O)[O-])cc2[nH]c1=O)C(O)c1ccccc1Cl (configuration not stated)', '> 100 µM'),
  ('CC(=O)O[C@H]1CC[C@@]2(C)C(=CC[C@@H]3[C@@H]2CC[C@](C)(c2nnc(C)o2)[C@H]3CC#N)C1', '> 100 µM'),
  ('CCCn1c(=O)c2nn3c(=O)n(CCC)c(=O)c3nn2c1=O', '> 100 µM');

---

# System: EKVX NSCLC
# PROTOCOL_NOTES: NCI tumour cell line growth inhibition, 48 h
METRIC_NAME: TGI

INSERT INTO results (molecule, metric_name, result) VALUES
  ('C/C(=N\O)c1cccc(Nc2cc(-c3ccccc3)nc3c(O)cccc23)c1', 'TGI', '56.7 µM'),
  ('CS(=N)(=O)CCC(N)P(=O)(O)O (configuration not stated)', 'TGI', '> 100 µM'),
  ('COc1ccc(/C=C/C(=O)c2ccc(Nc3nc(Nc4ccc(F)cc4)nc(Nc4ccc(Cl)cc4)n3)cc2)cc1', 'TGI', '> 100 µM'),
  ('[N-]=[N+]=CC(=O)OCC1NC(=O)C(COC(=O)C=[N+]=[N-])NC1=O (configuration not stated)', 'TGI', '> 100 µM'),
  ('CC[C@@H]1CC[C@@H]2[C@H](CC[C@]3(C)[C@@H](OC(C)=O)CC[C@@H]23)[C@H]1C(=O)OC', 'TGI', '58.6 µM'),
  ('COc1ccc2c(c1)-c1nc(=O)n(CCCN(C)C)c3ccc([N+](=O)[O-])c(c13)N2', 'TGI', '6.45 µM'),
  ('CCCCN(CC)CCCCCCCCCCN1CCCc2cc(OC)ccc21', 'TGI', '25.4 µM'),
  ('CC(=O)N(CCN1C(=O)c2ccccc2C1=O)CCN1C(=O)c2ccccc2C1=O', 'TGI', '> 100 µM'),
  ('CC1=NC=C(O)c2ccccc2O1', 'TGI', '> 100 µM'),
  ('CCCOc1ccc(/C=N/Nc2cc(C)nc3ccc(Cl)cc23)cc1', 'TGI', '3.05 µM'),
  ('Cc1cccc(N=C/C=C(\Cl)c2ccc3ccccc3c2)c1', 'TGI', '> 100 µM'),
  ('C(=N\NC1=NCCN1)/c1cccc2cc3ccncc3nc12', 'TGI', '14.9 µM'),
  ('O=C1CCCC2=C1CC1=C(CCCC1=O)N2c1ccc([N+](=O)[O-])cc1', 'TGI', '> 100 µM'),
  ('O=[N+]([O-])/C=C/c1cc2ccc3ccccc3c2[nH]1', 'TGI', '5.33 µM'),
  ('COc1ccc(C2CC(c3ccc4ccccc4c3)=NN2c2nc(O)c(C3=c4cc(OC)ccc4=NC3=O)s2)cc1 (configuration not stated)', 'TGI', '0.355 µM'),
  ('NC1=NC2=C(CCCC2)C(c2cccs2)S1 (configuration not stated)', 'TGI', '> 100 µM'),
  ('Cn1nc(-c2ccccc2)c2c(-c3ccccc3)c3cc(Cl)ccc3nc21', 'TGI', '> 100 µM'),
  ('CC1(C)SCc2nc3ccccc3n21', 'TGI', '> 100 µM'),
  ('COC(=O)CC(CNC(=O)OCc1ccccc1)OCc1ccc(OC)cc1 (configuration not stated)', 'TGI', '> 100 µM'),
  ('CC(CNC(=O)c1ccccc1)(CNC(=O)c1ccccc1)[N+](=O)[O-]', 'TGI', '> 100 µM'),
  ('COc1cc(C2C(C(=O)O)=C(COC(C)=O)Oc3cc4c(cc32)OCO4)cc(OC)c1OC(C)=O (configuration not stated)', 'TGI', '> 100 µM'),
  ('O=C1C=CC(=O)c2cc(Sc3ccccc3)c(=O)c(Sc3ccccc3)cc21', 'TGI', '> 100 µM');
